target.or.system: human melanin concentrating hormone type 2 receptor (MCH-2R) (human, UniProt Q969V1 1-340)
Sequence (Q969V1 whole entry, form in doubt): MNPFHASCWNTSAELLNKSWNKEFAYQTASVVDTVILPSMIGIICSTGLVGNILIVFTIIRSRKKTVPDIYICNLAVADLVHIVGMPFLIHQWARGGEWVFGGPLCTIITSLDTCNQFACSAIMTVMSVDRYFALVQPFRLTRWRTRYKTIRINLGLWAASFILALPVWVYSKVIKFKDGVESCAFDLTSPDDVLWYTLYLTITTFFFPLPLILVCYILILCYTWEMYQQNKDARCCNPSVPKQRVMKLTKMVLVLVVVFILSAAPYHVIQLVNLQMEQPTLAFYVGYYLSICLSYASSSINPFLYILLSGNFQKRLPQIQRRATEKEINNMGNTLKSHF
assay.overview: cell-based or functional assay
Bridges are numbered along the chain shown (N, C = ends). Where no end group is shown, it is not given here.
Friendly reminder: EC50 (aequorin functional assay) below 60 nM is 1, at or above is 0.

Below, 3 binders whose answers are already recorded.
| binder | answer.label |
| --- | --- |
| DFDMLACMLGRVYRPCWQV (disulfide 7-16, also called Ala^6) [SEQ. ID. NO. 46] | 0 |
| DFAMLRCMLGRVYRPCWQV (disulfide 7-16, also called Ala^3) [SEQ. ID. NO. 43] | 1 |
| DFDMLRCALGRVYRPCWQV (disulfide 7-16) [SEQ. ID. NO. 47] | 0 |

Please let me know if DFDALRCMLGRVYRPCWQV (disulfide 7-16, also called Ala^4) [SEQ. ID. NO. 44] shows EC50 (aequorin functional assay) below 60 nM.
1

Now the same for DFDMLRCMLGRVYRACWQV (disulfide 7-16, also called Ala^15) [SEQ. ID. NO. 53]
0

Also, DFDMLRCMLGRVYRPCWQV (ligand, disulfide 7-16 (inferred), cyclic 19-amino acid peptide; also called hMCH; mammalian MCH) [human MCH (melanin-concentrating hormone), SEQ. ID. NO. 1] please.
1
